# METHOD SUMMARY: yeast display, Sf9 membrane polyspecificity reagent, FACS + sequencing; frameworks hold sequencing errors
QUANTITY MEASURED: polyreactivity (PSR sort gate)

{"RESIDUES": "QVQLEESGRGLVQAGGSLRLSCAASGSTLSTYSMGWYRQAPGKERELVAAITWSDDSTYYADSVKGRFTISRDNAKNTFYLQMNSLKPEDTAVYYCAAEYISWYFGYDYWGQGTQVTVSS", "RESULT": "high polyreactivity"}
{"RESIDUES": "QVQLVEAGGGLVQAGGSLRLSCAASGRIFYQNTMGWYIQAPGKERELVAAISKSGGRTYYADSVKGRFTISRDNAKNTVYLQMNSLKPEDTAVYYCDQGYASEMDYWGQVTQVTVSS", "RESULT": "high polyreactivity"}
{"RESIDUES": "QVQLVESGGGLVQAGGSLSLSCAASGSIFHPYTMGWYRQAPGKERELVAGISQSSDSTYYADSVKGRFTISRDNAKNTVYLQMNSLKPEDTAVYYCNRDNDWPLSVVEVDYWGQGTQVTVSS", "RESULT": "low polyreactivity"}
{"RESIDUES": "QVQLVESGGGLVQAGGSLRLSCAASGSTFWAYAMGWYRQAPGKERELVAAITTGGGRTFYADSVKGRFTISRDNAKNTVYLQMNSLKPEDTAVYYCAAVSQSYRMYYWGQGTQVTVSS", "RESULT": "low polyreactivity"}
{"RESIDUES": "QVQLVESGGGLVQAGGSLRLSCAASGFTFYYNAMGWYRQAPGKERELVAAISASGGRTYYADSVKGRFTISRDNAKNTVYLQINSLKPEDTAVYYCAYRVYPHYGWYDYWGQGTQVTVSS", "RESULT": "high polyreactivity"}

* * *

# METHOD SUMMARY: yeast display, Sf9 membrane polyspecificity reagent, FACS + sequencing; frameworks hold sequencing errors

{"RESIDUES": "QVQLVESGGGLVQARGSHRLSCAASGSIFVINAMGWYRQAPGKERELVAAISYSGTGTYFADSVKGRFTISRDNAKNTVYLQMNSLKPEDTAVYYCAADYYYRYRIYDYWGQGTQVTVSS", "polyreactivity (PSR sort gate)": "low polyreactivity"}
{"RESIDUES": "QVQLVESGGGLVQAGGSLRLSCAASGFTFWYYAMGWYRQAPGKERELVAAITYNGDRTYYADSVKGRFTISRDNAKNTVYLQMNSLKREDTAVYYCAVYLGIRSGTANDYWGQGTQVTVSS", "polyreactivity (PSR sort gate)": "high polyreactivity"}
{"RESIDUES": "QVQLVESGGGLVQAGGSLRLSCAASGRIFQRNVMGWYRQAPGKERELVAAITGSGGSTYYADSLKGRFTISRDNAKNTVYLQMNSLKPEYTAVYYCAAKVYRGYDYWGQGTQVTVSS", "polyreactivity (PSR sort gate)": "high polyreactivity"}
{"RESIDUES": "QVQLVESGGGLVQAGGSLRLSCAASGRIVRSYTMGWYRLEPGKERELVSDITSGTSTSYADSVKGRFTISRDNAKNTVYLQINSLKPEDTAVYYCNADVSNYFWNWPYQGMDYWGQGTQVTVSS", "polyreactivity (PSR sort gate)": "low polyreactivity"}
{"RESIDUES": "QVQLVDSGGGLVQAGGSLRLSCAASGSTFYGYTMGWYRQAPGKERELVAAITSSGGSTYYADTVKGRFTISRDNAKNTVYLQMNSLNPEDTAVYYCAARGYRHFYYWGQGTQVTVSS", "polyreactivity (PSR sort gate)": "high polyreactivity"}
{"RESIDUES": "QVQRVESGGGLVQAGGSLRLSCAASGRTFWTNAMGWYRQAPGTERELVAAISGSGGSTYFADSVKGRFTISRDNAKNTVYLQMNSLKPEDTAVYYCAAYSRFRYDYWGQGTQVTVSS", "polyreactivity (PSR sort gate)": "high polyreactivity"}
{"RESIDUES": "QVQLVESGGALVQAGGSLRLSCAASGSIFGLKDMRWYRPAPGKEREFVAAITWSGGSSTYYADSVKGRFTISRDNAKITVSLQMNSVKTEDTAVYYCAADDRTLPADVDYWGQGTQVTVSS", "polyreactivity (PSR sort gate)": "high polyreactivity"}
{"RESIDUES": "QVQLVESGGGLVQAGGSLRLSCAASRFTFTAYAMGWYRQAPGKERELVAAITGTGGSTKYADSVKGRFTISRDNAKNSVDLQMYSLKPEDTAVYYCAAIRFTLRRMDYWGHGTQVTVSS", "polyreactivity (PSR sort gate)": "high polyreactivity"}
{"RESIDUES": "QVQLVESGGGLVQAGGSLRLSCAASGSTFVIYAMGWYRQAPGKERELVAAIRLGGGSTYYADSVKGRFTISRDNANNTVYLQMNSLKPEDTAVYYCAAEVDQWYYRGYDYWGQGTQVTVSS", "polyreactivity (PSR sort gate)": "high polyreactivity"}
{"RESIDUES": "QVQLVESGGGLVQAGGSLRLSCAASGFTFGWYAMGWYRQAPGKERELVAAISWSGGSTYYADSVKGRFTISRDNAKKTVYLQMNSLKPEDTAVYYCAAYPAYGGDYWGQGTQVTVSS", "polyreactivity (PSR sort gate)": "high polyreactivity"}
{"RESIDUES": "QVQLVESGGGLVQAGGSLRLSCAASGTIFPGYTIGWYRQAPGKEREFVAAISRRGGSTYYADSVKGRFTISRDNAKNTVYLQMNSLKPEDTAVYYCPKVPDYRFEYWGQGTLVTVSS", "polyreactivity (PSR sort gate)": "high polyreactivity"}
